The measurements presented in this section are drawn from the METLIN SMRT retention time set (Domingo-Almenara et al. 2019).

# protocolNotes: gradient 5% acetonitrile 3 min, to 50% in 2 min, to 85% in 15 min, held 3 min, 100 µL/min
# studyConditions: column: Zorbax Extend-C18 2.1 x 50 mm; eluents: water / acetonitrile, 0.1% formic acid
measurementKind: RP-LC retention time (s)

- COc1ccccc1N1CCN(CCNC(=O)NCc2cccs2)CC1: 586
- CC(=O)Nc1cccc(N2CC(C(=O)Nc3ccc(C)cc3Br)CC2=O)c1 (stereo not given): 720
- CNC(=O)c1cn2ccnc(-c3ccc(OC)cc3)c2n1: 711

P = COc1cccc(CC(=O)Nc2cnn(C)c(=O)c2N2CCOCC2)c1
Q = COc1ccc(C2Cn3nnc(-c4nc(-c5ccc(OC(F)(F)F)cc5)no4)c3CO2)cc1 (stereo not given)
RP-LC retention time comparison. Which is larger, P or Q ? Your choice should be expressed through its label.
Q

* * *

# protocolNotes: gradient 5% acetonitrile 3 min, to 50% in 2 min, to 85% in 15 min, held 3 min, 100 µL/min
# studyConditions: column: Zorbax Extend-C18 2.1 x 50 mm; eluents: water / acetonitrile, 0.1% formic acid
measurementKind: RP-LC retention time (s)

• O=c1n(CC2CC2)nc2n1CCC(NS(=O)(=O)Cc1ccccc1)CC2 (centres undefined) = 704
• CC(NC(=O)c1cc(-c2ccc(Cl)cc2)cn1C)c1cccnc1 (centres undefined) = 726
• COc1ccc(NC(=O)c2cn(C)nc2S(=O)(=O)N2CCSCC2)cc1 = 848
• O=C(Cn1cnc2ccccc2c1=O)N[C@H](C(=O)O)c1ccccc1 = 642
• COc1ccc(N2C(=O)C3N=NN(Cc4nc(-c5ccc6c(c5)OCO6)no4)C3C2=O)cc1 (centres undefined) = 911
• CCOC(=O)c1c(C)oc2nc(C)nc(N3CCN(c4ccccn4)CC3)c12 = 654
• CC1=C(c2ccc(Cl)cc2)S(=O)(=O)N=C1N1CCCN(C(=O)C2CCCO2)CC1 (centres undefined) = 758
• CCOCCCNC(=O)CCc1nnc2ccc(-c3ccc(C)c(C)c3)nn12 = 754
• CCc1ccccc1NC(=O)N1CCC(c2cc(=O)n3nccc3n2C)CC1 = 663

* * *

# protocolNotes: gradient 5% acetonitrile 3 min, to 50% in 2 min, to 85% in 15 min, held 3 min, 100 µL/min
# studyConditions: column: Zorbax Extend-C18 2.1 x 50 mm; eluents: water / acetonitrile, 0.1% formic acid
measurementKind: RP-LC retention time (s)

- Cc1ccc(-n2c(=O)c3c(cc(C)n3C)n(CC(=O)Nc3ccc(Br)cc3F)c2=O)cc1: 944
- CN(Cc1nc2ccccc2n1Cc1ccccc1F)C(=O)c1ccco1: 719
- CC(=O)c1ccc(NC(=O)c2cnc(-c3ccc(F)cc3)nc2-c2ccncc2)cc1: 837
- O=C(NCc1cccc(Br)c1)C1CCCN(c2ccc(=O)n(-c3ccc(F)cc3)n2)C1 (centres undefined): 1050
- COc1ccc(-c2ccnc3nc(Cc4ccc(F)cc4)nn23)c(F)c1: 906
- O=S(=O)(Cc1ccccc1Cl)N(CCc1cccs1)Cc1ccco1: 1080
- O=C(Nc1ccc(SCc2nnc(-c3ccccc3)o2)cc1)C1CC1: 870
- Cc1c([C@@H](C)C2NC[C@@H](C)C[C@H]2O)ccc2c1C[C@@H]1[C@H]2CC=C2C[C@@H](O)CC[C@@]21C (some centres undefined): 749
- CCOc1cc(CNC(=O)c2ccc3c(c2)N(C)C(=O)c2ccccc2O3)cc(OCC)c1OCC: 973

* * *

# protocolNotes: gradient 5% acetonitrile 3 min, to 50% in 2 min, to 85% in 15 min, held 3 min, 100 µL/min
# studyConditions: column: Zorbax Extend-C18 2.1 x 50 mm; eluents: water / acetonitrile, 0.1% formic acid
measurementKind: RP-LC retention time (s)

- O=C(c1ccccc1Br)N1CCN(c2cc(-c3cccs3)[nH]n2)CC1: 761
- COc1ccc(OC)c(NC(=O)c2cc(C3CC3)[nH]n2)c1: 775
- CNCCC(Oc1ccccc1OC)c1ccccc1 (stereo not given): 734
- Cc1cccc(Nc2ncccc2S(N)(=O)=O)c1: 811
- Cc1ccc(CNC(=O)C2(C)CCN(S(=O)(=O)c3ccccc3Cl)CC2)cc1: 998

a = CCOc1ccccc1NC(=O)c1sc(N2CCCC2=O)nc1CC
b = CNC(=O)c1nc(C(C)(C)NC(=O)c2cnccn2)nc2c1OCO2
For the pair a and b , which member has the lower RP-LC retention time number? Your choice should be expressed through its label.
b
(b: 631 s, a: 1020 s)

* * *

# protocolNotes: gradient 5% acetonitrile 3 min, to 50% in 2 min, to 85% in 15 min, held 3 min, 100 µL/min
# studyConditions: column: Zorbax Extend-C18 2.1 x 50 mm; eluents: water / acetonitrile, 0.1% formic acid
measurementKind: RP-LC retention time (s)

- Cn1nc(CN2CCOCC2)c2c1CCN(S(=O)(=O)c1cc(F)cc(F)c1)C2: 642
- COc1ccc(-c2nc(-c3cn(-c4ccc(F)cc4)nn3)no2)c(OC)c1: 974
- O=C(NC1CCCC1)C1CCN(C(=O)c2cccn2-c2cccnc2)CC1: 632
- COCC1(O)CCOC2(CCN(Cc3ccc(C)cc3)CC2)C1 (stereo not given): 556
- CCCNC(=O)NCCC1CCN(S(=O)(=O)c2ccc(F)cc2)CC1: 771

A = CCCn1ccc2oc(C)c(C(=O)NCc3ccc(CC)cc3)c2c1=O
B = CC(C)NC(=O)C1CCN(C(=O)c2ncn3c2COC(c2ccccc2)C3)CC1 (stereo not given)
RP-LC retention time comparison. Which is larger, A or B ? Your choice should be expressed through its label.
A

I = Cn1c(=O)c2ccn(CC(=O)N3CCN(c4ccc(Cl)cc4)CC3)c2n(C)c1=O
II = C=CCOc1ccnc(-c2ccccc2)n1
RP-LC retention time comparison. Which is larger, I or II ? Your choice should be expressed through its label.
II
(II: 1110 s, I: 752 s)

* * *

# protocolNotes: gradient 5% acetonitrile 3 min, to 50% in 2 min, to 85% in 15 min, held 3 min, 100 µL/min
# studyConditions: column: Zorbax Extend-C18 2.1 x 50 mm; eluents: water / acetonitrile, 0.1% formic acid
measurementKind: RP-LC retention time (s)

- CCOC(=O)COc1cccc2c1CCN(Cc1ccc(Cl)cc1)C2=O: 934
- N#CC1(C(=O)Nc2ccc(F)c(F)c2)CC1: 760
- CC1=C(c2ccc(C)cc2)S(=O)(=O)N=C1N1CCC(NC(=O)c2sccc2C)CC1: 596
- COc1ccc2nc(-c3ccc(NS(=O)(=O)c4ccccc4C(F)(F)F)cc3)cn2n1: 792
- O=C(NCc1cccnc1)c1cc(-c2ccc3c(c2)OCO3)nc2ccccc12: 665

* * *

# protocolNotes: gradient 5% acetonitrile 3 min, to 50% in 2 min, to 85% in 15 min, held 3 min, 100 µL/min
# studyConditions: column: Zorbax Extend-C18 2.1 x 50 mm; eluents: water / acetonitrile, 0.1% formic acid
measurementKind: RP-LC retention time (s)

• Cc1c(Cl)cccc1NC(=O)Nc1cccc(-c2ccc(N3CCOCC3)nn2)c1 = 753
• CCS(=O)(=O)c1ccc(-c2cccc(NC(=O)c3ccc4ccccc4n3)c2)nn1 = 912
• Cc1ccc(NC(=O)N2CCC(c3cc(N)on3)CC2)cc1F = 733
• CCN1CCN(S(=O)(=O)c2ccc(Cl)c(-c3nnc(-c4ccccc4)o3)c2)CC1 = 702
• N#Cc1cccc(C(=O)NC2CCN(C(=O)C3CC3)C2)c1 (stereo not given) = 651

* * *

# protocolNotes: gradient 5% acetonitrile 3 min, to 50% in 2 min, to 85% in 15 min, held 3 min, 100 µL/min
# studyConditions: column: Zorbax Extend-C18 2.1 x 50 mm; eluents: water / acetonitrile, 0.1% formic acid
measurementKind: RP-LC retention time (s)

- CCCCN1C(=O)C(C)(C(=O)Nc2ccc(C)cc2)Oc2cccnc21 (stereo not given): 1060
- CC(=O)N1c2ccc(S(=O)(=O)N3CCCCC3)cc2CC1C(=O)N1CCN(c2ccccn2)CC1 (stereo not given): 645
- COC(=O)Cn1c(C2CC(=O)N(c3cccc(C)c3)C2)nc2ccccc21 (stereo not given): 758

a = CC(C)(C)c1nnc(NC(=O)C2CCN(C(=O)c3ccc(F)cc3)CC2)s1
b = Cc1cc(C)n(-c2cc(N3CCN(c4nc(-c5ccccc5)cs4)CC3)ccc2[N+](=O)[O-])n1
For the pair a and b , which member has the lower RP-LC retention time number? Your choice should be expressed through its label.
a
(a: 776 s, b: 1190 s)

* * *

# protocolNotes: gradient 5% acetonitrile 3 min, to 50% in 2 min, to 85% in 15 min, held 3 min, 100 µL/min
# studyConditions: column: Zorbax Extend-C18 2.1 x 50 mm; eluents: water / acetonitrile, 0.1% formic acid
measurementKind: RP-LC retention time (s)

* CC(C)CN1C(=O)c2cccn2CC1C(=O)NCc1ccco1 (centres undefined) | 733
* Cc1csc(-c2ccc(N3CCN(C(=O)c4ccc(F)c(F)c4)CC3)nc2)n1 | 846
* COc1cccc(CSc2ccc(-n3nc4c(c3C)CCC4)nn2)c1 | 1240
* COc1ccc(-c2csc(NC(=O)Cn3c(=O)oc4ccccc43)n2)cc1 | 933
* COc1c2c(cc3c1[C@@H]1Oc4c(ccc(O)c4CC=C(C)C)[C@@H]1CO3)OC(C)(C)C=C2 | 710
* COC(=O)c1c(-c2ccc(C)cc2)csc1NC(=O)C1CCN(C(C)=O)CC1 | 932

a = COc1ccc(-c2noc(C3CCCN3C(=O)Nc3cc(Cl)ccc3OC)n2)cc1 (centres undefined)
b = O=C(c1cn(-c2cc(N3CCSCC3)ncn2)cn1)N1CCCCC1
For the pair a and b , which member has the lower RP-LC retention time number? Your choice should be expressed through its label.
b

P = O=C(NCC1CCCCC1)C1CCN(C(=O)c2cc3ccsc3n2Cc2ccc(Cl)cc2)CC1
Q = COC(=O)c1cccc(C(=O)N2CCN(c3ccccc3F)CC2)n1
RP-LC retention time comparison. Which is larger, P or Q ? Your choice should be expressed through its label.
P
